experimental.readout: melting point

# compound.string, experimental.readout, reported
measured = [
    ("CC(=O)NC[C@H]1CN(c2ccc3c(c2)CS(=O)(=O)N3CCF)C(=O)O1", "melting point", "84 to 87 °C (dec.)"),
    ("CC(=O)NC[C@H]1CN(c2ccc3c(c2)CS(=O)(=O)N3C)C(=O)O1", "melting point", "84 to 86 °C"),
    ("CC(=S)NC[C@H]1CN(c2ccc3c(c2)CS(=O)(=O)N3CCF)C(=O)O1", "melting point", "90 to 93 °C (dec.)"),
    ("CC(=O)NC[C@H]1CN(c2ccc3c(c2)CS(=O)(=O)N3CC#N)C(=O)O1", "melting point", "124 to 126 °C (dec.)"),
]
